meta.source: PubChem BioAssay (NCI)

This listing pairs molecules with measured TGI.
- Test system: SW-620 colon
- EXPERIMENT DESCRIPTION: NCI tumour cell line growth inhibition, 48 h
Give the value in µM but do not write µM after it.

>>> recorded_value("CCC(=O)C(CCN1CCC(N2C(=O)C(CCC#N)c3ccccc32)CC1)(c1ccccc1)c1ccccc1 (centres undefined)")
24

Could you now look at the following molecule, please?
Look up TGI: COc1ccc2nc3cc(Cl)ccc3c(N3CCN(c4ccnc(N5CCN(C)CC5)n4)CC3)c2c1
3.53

----------
Here, each record is paired with measured TGI data.
- Tested on: SF-539 CNS
- EXPERIMENT DESCRIPTION: NCI tumour cell line growth inhibition, 48 h
Give the quantity in µM, number only.

>>> recorded_value("COC(=O)c1ccc(C=C(C#N)C#N)cc1")
39.8
>>> recorded_value("O=C(/C=C(\\Nc1ccccc1O)c1ccc(Br)cc1)C(Cl)(Cl)Cl")
27.1

Tell me the measured TGI of COC1=C(OC)[C@]2(OC)c3c(O)c(OC)c4c(c3O[C@@]23O[C@@H](c2ccccc2)CC=C3C1=O)[C@@H](OC)C[C@H](c1ccccc1)O4 , please.
1.54

Query (molecule): COc1ccc(NC/C=C/C(=C/COC(C)=O)OC(C)=O)cc1 ; field requested: TGI
3.8

May I ask what TGI has been recorded for O=C1c2ccccc2C(=O)c2c1cc1c(c2[N+](=O)[O-])OCO1 ?
6.31

# get_value(readout='TGI', item= CCn1ccnc1C(=O)/C=C/c1ccc(CC(=O)Nc2ccc(F)cc2)cc1 )
6.15
